Assay Comment: Apparent permeability from apical to basolateral side in MDCK2-MDR1 cells at 75 uM after 120 mins by UV-Visible spectrophotometric method
Type: ADME, cell-based, Canis lupus familiaris, MDCK-II
Test Settings: dog, MDCK-MDR1
Reported Property: Papp A→B at 2 h, 75 µM (×10⁻⁶ cm/s)
Write the value in ×10⁻⁶ cm/s as a bare number.

Query (compound): COc1ccccc1OCCNCC1CSC2(CCCCC2)S1 (stereo unspecified) ; field requested: Papp A→B at 2 h, 75 µM 11.1

* * *

Listed compounds paired with reported Ki
Target System: Alpha-1D adrenergic receptor (Homo sapiens, UniProt P25100)
Sequence (P25100 whole entry): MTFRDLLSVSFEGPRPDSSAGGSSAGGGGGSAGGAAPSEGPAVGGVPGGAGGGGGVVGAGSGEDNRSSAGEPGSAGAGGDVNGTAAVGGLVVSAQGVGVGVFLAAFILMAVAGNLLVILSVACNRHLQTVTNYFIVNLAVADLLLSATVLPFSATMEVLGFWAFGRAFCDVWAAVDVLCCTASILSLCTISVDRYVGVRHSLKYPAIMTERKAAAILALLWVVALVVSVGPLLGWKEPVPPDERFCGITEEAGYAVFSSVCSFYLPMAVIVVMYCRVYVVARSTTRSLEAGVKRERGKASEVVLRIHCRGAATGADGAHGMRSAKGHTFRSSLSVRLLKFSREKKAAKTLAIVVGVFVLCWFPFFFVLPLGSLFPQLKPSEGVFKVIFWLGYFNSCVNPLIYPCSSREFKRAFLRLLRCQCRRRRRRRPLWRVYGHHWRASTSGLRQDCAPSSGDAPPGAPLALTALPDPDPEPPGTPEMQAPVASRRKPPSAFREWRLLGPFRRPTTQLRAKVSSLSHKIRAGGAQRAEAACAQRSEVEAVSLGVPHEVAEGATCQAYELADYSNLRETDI
Assay Comment: Displacement of [3H]prazosin from recombinant human alpha1d adrenergic receptor expressed in CHO cell membranes after 30 mins by TopCount liquid scintillation counting method
Write the value in nM as a bare number.

A selection of reference data follows.
>>> reported_measurement("c1ccc(OCCNCC2COC3(CCCCC3)O2)cc1 (centres undefined)")
550
>>> reported_measurement("COc1ccccc1OCCNCC1CSC2(CCCCC2)O1 (centres undefined)")
32.4
>>> reported_measurement("COc1cccc(OC)c1OCCNCC1COC2(CCCCC2)O1 (centres undefined)")
1780
>>> reported_measurement("COc1ccccc1OCCNCC1CSC2(CCCCC2)S1 (centres undefined)")
34.7
>>> reported_measurement("COc1ccccc1OCCNCC1COC2(CCCCC2)O1 (centres undefined)")
95.5

I'm curious: which Ki was measured for COc1ccccc1N1CCN(CC2CSC3(CCCCC3)O2)CC1 (centres undefined) tested on Alpha-1D adrenergic receptor (Homo sapiens, UniProt P25100)? 38.9

What would you report for c1ccc(OCCNCC2CSC3(CCCCC3)O2)cc1 (centres undefined) ? 214

What would you report for COc1ccccc1N1CCN(CC2CSC3(CCCCC3)S2)CC1 (centres undefined) ? 100

What would you report for c1ccc(OCCNCC2CSC3(CCCCC3)S2)cc1 (centres undefined) ? 123

Hey, just so you know, these numbers are from ChEMBL document CHEMBL3877267.
